Field: IC50. Provide a value for each of the binders that follow.
- system: T1, hu-IL-7Rα subunit (human), P16871
- T1 chain: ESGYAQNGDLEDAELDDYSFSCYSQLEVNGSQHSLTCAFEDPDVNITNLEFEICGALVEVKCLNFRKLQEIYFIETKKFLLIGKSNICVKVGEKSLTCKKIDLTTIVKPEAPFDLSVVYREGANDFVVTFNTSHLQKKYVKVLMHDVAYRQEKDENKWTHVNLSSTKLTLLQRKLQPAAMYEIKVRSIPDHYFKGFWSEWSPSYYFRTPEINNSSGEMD
- assay-comment: not stated; binding to a unique binding site on the IL-7Rα subunit

Req: Which IC50 value belongs to YMACSSGLSLCRLS (modifications not checked) [SEQ ID NO 457] ?
Resp: < 10 µM

Req: Same for VYCAEIGEYRVCRQ (modifications not checked) [SEQ ID NO 456]
Resp: < 10 µM
